EXPERIMENTAL_SYSTEM: recombinant human MASP2 active protease (amino acids 297-686, C-terminal His Tag) (human, UniProt O00187 297-686)
Sequence (O00187 other isoform, or with tags, fused parts or gaps limits assumed): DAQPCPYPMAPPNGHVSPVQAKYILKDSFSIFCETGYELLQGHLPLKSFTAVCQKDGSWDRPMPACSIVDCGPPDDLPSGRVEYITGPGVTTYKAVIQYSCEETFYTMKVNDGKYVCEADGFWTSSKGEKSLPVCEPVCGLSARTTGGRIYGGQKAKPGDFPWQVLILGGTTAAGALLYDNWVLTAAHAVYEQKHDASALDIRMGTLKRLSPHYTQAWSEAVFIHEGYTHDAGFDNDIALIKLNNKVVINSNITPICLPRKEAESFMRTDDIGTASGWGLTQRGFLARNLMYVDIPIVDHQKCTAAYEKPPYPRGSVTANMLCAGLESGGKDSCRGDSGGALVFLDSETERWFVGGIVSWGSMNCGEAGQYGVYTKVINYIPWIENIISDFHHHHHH
PROCEDURE_TEXT: cell-based or functional assay
Bridge positions count the residues as written; N and C are the ends. Square brackets hold non-standard residues; d marks the D form. Ends that are not written are not given here. (S)‑3‑(2H-tetrazol-5-yl)propanoic acid = (S)-3-(2H-tetrazol-5-yl)propanoic acid; Pro(3S,4R-methano) = O=C(O)[C@H]1NC[C@@H]2C[C@@H]21; Oic = O=C(O)[C@@H]1C[C@@H]2CCCC[C@@H]2N1; tBuAla = CC(C)(C)C[C@H](N)C(=O)O; Pen = CC(C)(S)[C@H](N)C(=O)O; NMeA = CN[C@@H](C)C(=O)O; Sar = CNCC(=O)O
QUANTITY_MEASURED: human MASP2 IC50 (nM)
Report only the number, with the unit nM understood.

Reported human MASP2 IC50 for [Sar]ICSRS[tBuAla]PPI[Pen]IP[(S)‑3‑(2H-tetrazol-5-yl)propanoic acid]-NH2 (disulfide 3-11) [((N-Me)G)-IC+SRS-((tBu)A)-PPI-(Pen)+IP-((S)-3-(2H-tetrazol-5-yl)propanoic acid)-NH2] : what is it? 36

Again, but for [NMeA]ICSRS[tBuAla]PPI[Pen]IPD-NH2 (disulfide 3-11; N-terminus assumed; SMILES CC[C@H](C)[C@H](NC(=O)[C@H](C)NC)C(=O)N[C@H]1CSSC(C)(C)[C@@H](C(=O)N[C@H](C(=O)N2CCC[C@H]2C(=O)N[C@@H](CC(=O)O)C(N)=O)[C@@H](C)CC)NC(=O)[C@H]([C@@H](C)CC)NC(=O)[C@@H]2CCCN2C(=O)[C@@H]2CCCN2C(=O)[C@H](CC(C)(C)C)NC(=O)[C@H](CO)NC(=O)[C@H](CCCNC(=N)N)NC(=O)[C@H](CO)NC1=O) [((N-Me)A)-IC+SRS-((tBu)A)-PPI-(Pen)+IPD-NH2] 98

Repeat for the following binder: [Sar]ICSRSL[Pro(3S,4R-methano)]PI[Pen]IPE-NH2 (disulfide 3-11; N-terminus assumed; SMILES CC[C@H](C)[C@H](NC(=O)CNC)C(=O)N[C@H]1CSSC(C)(C)[C@@H](C(=O)N[C@H](C(=O)N2CCC[C@H]2C(=O)N[C@@H](CCC(=O)O)C(N)=O)[C@@H](C)CC)NC(=O)[C@H]([C@@H](C)CC)NC(=O)[C@@H]2CCCN2C(=O)[C@@H]2[C@H]3C[C@H]3CN2C(=O)[C@H](CC(C)C)NC(=O)[C@H](CO)NC(=O)[C@H](CCCNC(=N)N)NC(=O)[C@H](CO)NC1=O) [((N-Me)G)-IC+SRSL-((1S,2S,5R)-3-azabicyclo[3.1.0]hexane-2-carboxylic acid)-PI-(Pen)+IPE-NH2] 70

Also check AICSRS[tBuAla]PPI[Pen]IP[dE]-NH2 (disulfide 3-11; N-terminus assumed; SMILES CC[C@H](C)[C@H](NC(=O)[C@H](C)N)C(=O)N[C@H]1CSSC(C)(C)[C@@H](C(=O)N[C@H](C(=O)N2CCC[C@H]2C(=O)N[C@H](CCC(=O)O)C(N)=O)[C@@H](C)CC)NC(=O)[C@H]([C@@H](C)CC)NC(=O)[C@@H]2CCCN2C(=O)[C@@H]2CCCN2C(=O)[C@H](CC(C)(C)C)NC(=O)[C@H](CO)NC(=O)[C@H](CCCNC(=N)N)NC(=O)[C@H](CO)NC1=O) [AIC+SRS-((tBu)A)-PPI-(Pen)+IPe-NH2] 62

Can you handle [Sar]ICSRSLP[Oic]I[Pen]IP[PEG5‑CH2CO2H (18 atoms)]-NH2 (disulfide 3-11) [((N-Me)G)-IC+SRSLP-(Oic)-I-(Pen)+IP-(PEG5-CH2CO2H (18 atoms))-NH2] next? 110

Origin of measurements: patent US20210246166A1
